Molecular target: UniProtKB P18054
Sequence (P18054 1-663): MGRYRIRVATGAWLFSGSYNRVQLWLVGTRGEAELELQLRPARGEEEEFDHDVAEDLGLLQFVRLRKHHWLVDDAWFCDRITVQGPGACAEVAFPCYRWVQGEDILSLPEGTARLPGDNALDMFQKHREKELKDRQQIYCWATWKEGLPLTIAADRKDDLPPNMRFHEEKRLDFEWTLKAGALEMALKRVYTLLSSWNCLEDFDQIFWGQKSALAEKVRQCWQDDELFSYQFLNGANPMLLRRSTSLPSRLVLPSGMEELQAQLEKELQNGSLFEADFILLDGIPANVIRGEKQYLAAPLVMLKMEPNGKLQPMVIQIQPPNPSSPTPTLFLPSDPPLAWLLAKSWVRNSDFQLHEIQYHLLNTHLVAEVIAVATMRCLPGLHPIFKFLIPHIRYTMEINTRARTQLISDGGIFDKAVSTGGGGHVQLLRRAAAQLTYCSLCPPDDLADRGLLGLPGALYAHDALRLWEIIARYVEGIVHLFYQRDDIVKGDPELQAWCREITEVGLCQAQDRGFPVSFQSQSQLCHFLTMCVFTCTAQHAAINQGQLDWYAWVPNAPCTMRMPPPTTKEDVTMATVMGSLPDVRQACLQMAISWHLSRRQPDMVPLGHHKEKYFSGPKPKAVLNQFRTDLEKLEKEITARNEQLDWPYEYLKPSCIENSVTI
Assay: 12-LOX fluorescent assay (in vitro lipoxygenase inhibition)
Type: biochemical
Settings: 100 nM recombinant 12-LOX, 20 μM AA, DHR123 fluorescence; several values in a cell = repeat determinations; read-out: IC50 (μM) values for in vitro lipoxygenase inhibition, 12-LOX
measurement-type: IC50 (µM)

// known answers, use as guide
1. c1cc(NCCCn2cncn2)cc(NC2CCCCC2)c1 [SS20308-0238-01]    0.17
2. Clc1ccc(-c2ccc(Nc3ccccc3)cc2NCCn2cncn2)cc1 [SS20308-0147-01]    0.14
3. Fc1ccc(Nc2ccc(NCCCN3CCOCC3)c(C(F)(F)F)c2)cc1 [SS20308-0316-01]    0.03

1. Fc1ccc(C(Nc2ccc(NCCn3cncn3)cc2)C(F)(F)F)cc1 (centres unmarked) [SS20308-0232-01]
2. c1ccc(CNc2cnc(-c3ccccc3)c(NCCn3cncn3)c2)cc1 [SS20308-0219-01]
Hi team, can someone confirm which has the larger IC50: 1 or 2 ? Thanks. API: response body contains the label of the selected item.
2

###

Target: UniProt:P18054
Experiment: 12-LOX fluorescent assay (in vitro lipoxygenase inhibition)
Assay type: biochemical
Conditions: 100 nM recombinant 12-LOX, 20 μM AA, DHR123 fluorescence; several values in a cell = repeat determinations; read-out: IC50 (μM) values for in vitro lipoxygenase inhibition, 12-LOX
measurement-type: IC50 (µM)

Below, each entry is followed by its recorded IC50 result.
1. c1ccc(CNc2ccc(-c3ccccc3)c(NCCn3cncn3)c2)cc1 [SS20308-0096-01]    0.24
2. CCOC(=O)c1ccc(Nc2ccccc2OCCn2cncn2)cc1 [SS20308-0033-01]    23.9
3. COc1ccc(CNc2cccc(N)c2OCCN(C)C)cc1 [SS20308-0025-01]    1.29

1. c1ccc(CNc2ccc(NCCn3cncn3)c(-c3cccs3)n2)cc1 [SS20308-0218-01]
2. FC(F)(F)C(Nc1ccc(NCCn2cncn2)cn1)c1ccccc1 (stereo not drawn) [SS20308-0245-01]
Looking at recorded values for IC50, does 1 or 2 come in lower? Return value: the label identifying the chosen record.
1
(1: 0.01 µM, 2: 0.51 µM)

1. c1ccc(CNc2ccc(-c3ccccc3)c(NCCn3cncn3)n2)cc1 [SS20308-0221-01]
2. Cc1ccc(NCc2ccc(F)cc2)cc1NCCCn1cncn1 [SS20308-0237-01]
3. FC(F)(F)C(Nc1ccc(NCCCN2CCOCC2)c(C2CCOCC2)c1)c1ccccc1 (stereo not drawn) [SS20308-0315-01]
4. Fc1ccc(CNc2cccc(NCCn3cncn3)n2)cc1 [SS20308-0249-01]
Rank the 4 compounds: largest IC50 first, smallest last. Order the labels as requested and list them.
4, 2, 1, 3
(4: 0.37 µM, 2: 0.18 µM, 1: 0.11 µM, 3: 0.06 µM)

A. c1ccc(Nc2ccc(-c3cccs3)c(NCCn3cncn3)c2)cc1 [SS20308-0193-01]
B. Fc1ccc(Nc2ccc(NCC3(Cn4cncn4)COC3)c(OC(F)(F)F)c2)cc1 [SS20308-0319-01]
C. CCOC(=O)c1ccc(Nc2cccc(Nc3ccccc3)c2OCCn2cncn2)cc1 [SS20308-0055-01]
D. c1ccc(CNc2ccc(NCCn3cncn3)c(-c3cccnc3)c2)cc1 [SS20308-0216-01]
Rank by IC50 (largest to smallest). Write the labels in rank order as requested.
C, A, B, D

P. Fc1ccc(Nc2ccc(-c3ccc(Cl)cc3)c(NCCn3cncn3)c2)cc1 [SS20308-0181-01]
Q. c1ccc(Nc2ccc(-c3cccc4c3NCC4)c(NCCn3cncn3)c2)cc1 [SS20308-0166-01]
R. c1ccc(Nc2ccc(-c3ccccc3)c(NCCn3cncn3)n2)cc1 [SS20308-0175-01]
S. Cn1cncc1-c1ccc(Nc2ccccc2)cc1NCCn1cncn1 [SS20308-0177-01]
T. c1ncn(CCCNc2ccc(NCC3CCCCC3)cc2)n1 [SS20308-0240-01]
// smallest IC50 at index 0, largest at the end Response field: labels, in requested order.
T, Q, P, R, S
